- Tested on: Madurella mycetomatis MM55
- ASSAY SUMMARY: growth relative to untreated control; higher = less inhibition, active = 20 or less
- RUN PARAMETERS: 25 µM
Listed here are molecules together with their documented growth.

Worked set:
NC(=O)N1CCC(CC(=O)N2CCC([C@H]3c4ncc(Br)cc4CCc4cc(Cl)cc(Br)c43)CC2)CC1: 3.17% (active)
CCOC(=O)N1CCC(=C2c3ccc(Cl)cc3CCc3cccnc32)CC1: 54.3% (inactive)
C[C@@H]1CS/C(=N\NC(=O)C(=O)[C@@H](NC(=O)C2CCCCCC2)C2CCOCC2)N1C: 88.8% (inactive)
CC(C)CC(NC(=O)N1CCOCC1)C(=O)NC(/C=C/S(=O)(=O)c1ccccc1)CCc1ccccc1 (centres undefined): 86.4% (inactive)
C[C@H]1c2cccc(O)c2C(=O)C2=C(O)[C@]3(O)C(O)=C(C(N)=O)C(=O)[C@@H](N(C)C)[C@@H]3[C@@H](O)[C@@H]21: 63.1% (inactive)
O=c1c(Cl)c(OCc2ccc(Cl)nc2)cnn1-c1ccc(Cl)c(Cl)c1: 61.7% (inactive)
CCn1cnc2c(N3CCCC(c4ccncc4)C3)ncnc21 (centres undefined): 84.4% (inactive)
CC(C)C[C@H](NC(=O)[C@H](Cc1ccccc1)NC(=O)c1cnccn1)B(O)O: 113% (inactive)

// switching to the query molecule
Give the measured growth of "Fc1ccc([C@@H]2CCNC[C@H]2COc2ccc3c(c2)OCO3)cc1" .
5.94% (active)
